Catalogue of abundance fitness readings, one per entry.
B1: Transcription factor SOX-11, residues 50 to 117; numbered along this chain, P35716 (parent)
chain: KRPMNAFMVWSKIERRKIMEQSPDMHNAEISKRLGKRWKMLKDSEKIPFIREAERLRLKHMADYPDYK

variants of: B1; assay: abundance fitness (aPCA) (normalised: wild type 0, dead -1); higher = more abundant; growth selection in yeast, the domain comes from the species named; details: Homo sapiens
Note: the reply should be a number with no unit written.

1. D24H : -0.26
2. Q21L : -0.353
3. L34D : -0.685
4. Q21H : -0.194
5. W38L : -0.994

abundance fitness in this record for W38T : -1.05

The measured abundance fitness associated with P23D reads -0.739
